- System: p27 protein
- Assay Summary: Quantification of p27 protein by ELISA (p27 protein-inducing activity, EC50)
- Type: cell-based, human
- Setup Conditions: NCI-H460 cells, 48 hours, p27 sandwich ELISA; Table 1-2
pEC50: −log10 of the molar value.
Readout Kind: pEC50

# Query Smiles, Measured Target, Result Value
rows = [
    ("CNS(=O)(=O)Nc1cc(Cc2c(C)c3cc(F)c(OC(=O)N(C)C)cc3oc2=O)ccn1", "p27 protein", 6.48),
    ("CNS(=O)(=O)Nc1nccc(Cc2c(C)c3cc(F)c(Oc4ncccn4)cc3oc2=O)c1F", "p27 protein", 6.66),
    ("CNS(=O)(=O)Nc1cccc(Cc2c(C)c3ccc(Oc4nccs4)cc3oc2=O)c1F", "p27 protein", 6.57),
    ("CNS(=O)(=O)Nc1nccc(Cc2c(C)c3cc(C)c(Oc4nccs4)cc3oc2=O)c1F", "p27 protein", 7.72),
]

###

- Test system: p27 protein
- Assay Summary: Quantification of p27 protein by ELISA (p27 protein-inducing activity, EC50)
- Assay type: cell-based, human
- Setup Conditions: NCI-H460 cells, 48 hours, p27 sandwich ELISA; Table 1-2
pEC50: −log10 of the molar value.

# Compound, pEC50
measured = [
    ("CNS(=O)(=O)Nc1nccc(Cc2c(C)c3cc(C)c(Oc4ncccn4)cc3oc2=O)c1F [Compound 1j-2-19-2]", 6.80),
    ("CNS(=O)(=O)Nc1cc(Cc2c(C)c3cc(Cl)c(Oc4nccs4)cc3oc2=O)ccn1 [Compound 1j-3-12-2]", 6.34),
    ("Cc1c(Cc2cccc(NS(N)(=O)=O)c2F)c(=O)oc2cc(Oc3nccs3)ccc12 [Compound 1j-3-4-1]", 6.37),
    ("CNS(=O)(=O)Nc1nccc(Cc2c(C)c3cc(C)c(Oc4nccs4)cc3oc2=O)c1Cl [Compound 1j-3-44-2]", 6.69),
    ("CNS(=O)(=O)Nc1cc(Cc2c(C)c3cc(Cl)c(OC(=O)N(C)C)cc3oc2=O)ccn1 [Compound 1j-1-12-2]", 5.96),
    ("CNS(=O)(=O)Nc1cc(Cc2c(C)c3ccc(OC(=O)N(C)C)cc3oc2=O)ccn1 [Compound 1j-1-10-2]", 6.43),
    ("Cc1c(Cc2ccccc2N)c(=O)oc2cc(OC(=O)N(C)C)c(Cl)cc12 [KIP-10]", 5.22),
    ("CCc1c(Cc2ccnc(NS(=O)(=O)NC)c2F)c(=O)oc2cc(Oc3ncccn3)c(C)cc12 [Compound 1j-2-19-2Me]", 7.32),
    ("CNS(=O)(=O)Nc1cc(Cc2c(C)c3cc(C)c(Oc4nccs4)cc3oc2=O)ccn1 [Compound 1j-3-20-2]", 7.00),
    ("Cc1c(Cc2ccccc2)c(=O)oc2cc(OC(=O)N(C)C)c(Cl)cc12 [Comp. 2, reference compound]", 5.27),
    ("CNS(=O)(=O)Nc1nccc(Cc2c(C)c3cc(Cl)c(Oc4ncccn4)cc3oc2=O)c1F [Compound 1j-2-18-2]", 7.37),
]

###

- System: p27 protein
- Assay Summary: Quantification of p27 protein by ELISA (p27 protein-inducing activity, EC50)
- Assay type: cell-based, human
- Setup Conditions: NCI-H460 cells, 48 hours, p27 sandwich ELISA; Table 1-1
pEC50: −log10 of the molar value.
Please note: criterion met applies when pEC50 is 7 or greater, and criterion not met applies otherwise.

# Query Smiles, Group Label
data = [
    ("CNS(=O)(=O)Nc1cccc(Cc2c(CF)c3cc(Cl)c(OC(=O)N(C)C)cc3oc2=O)c1", "criterion met"),
    ("CNS(=O)(=O)Nc1cccc(Cc2c(C)c3cc(C#N)c(OC(=O)N(C)C)cc3oc2=O)c1", "criterion not met"),
    ("COCCNS(=O)(=O)Nc1cccc(Cc2c(C)c3cc(Cl)c(OC(=O)N(C)C)cc3oc2=O)c1", "criterion not met"),
    ("Cc1c(Cc2cccc(NS(N)(=O)=O)c2F)c(=O)oc2cc(OC(=O)N(C)C)c(F)cc12", "criterion not met"),
]
